src = patent US20040082018A1

- SYSTEM_UNDER_TEST: CaR (Homo sapiens, UniProt P41180)
- Sequence (P41180 20-1078): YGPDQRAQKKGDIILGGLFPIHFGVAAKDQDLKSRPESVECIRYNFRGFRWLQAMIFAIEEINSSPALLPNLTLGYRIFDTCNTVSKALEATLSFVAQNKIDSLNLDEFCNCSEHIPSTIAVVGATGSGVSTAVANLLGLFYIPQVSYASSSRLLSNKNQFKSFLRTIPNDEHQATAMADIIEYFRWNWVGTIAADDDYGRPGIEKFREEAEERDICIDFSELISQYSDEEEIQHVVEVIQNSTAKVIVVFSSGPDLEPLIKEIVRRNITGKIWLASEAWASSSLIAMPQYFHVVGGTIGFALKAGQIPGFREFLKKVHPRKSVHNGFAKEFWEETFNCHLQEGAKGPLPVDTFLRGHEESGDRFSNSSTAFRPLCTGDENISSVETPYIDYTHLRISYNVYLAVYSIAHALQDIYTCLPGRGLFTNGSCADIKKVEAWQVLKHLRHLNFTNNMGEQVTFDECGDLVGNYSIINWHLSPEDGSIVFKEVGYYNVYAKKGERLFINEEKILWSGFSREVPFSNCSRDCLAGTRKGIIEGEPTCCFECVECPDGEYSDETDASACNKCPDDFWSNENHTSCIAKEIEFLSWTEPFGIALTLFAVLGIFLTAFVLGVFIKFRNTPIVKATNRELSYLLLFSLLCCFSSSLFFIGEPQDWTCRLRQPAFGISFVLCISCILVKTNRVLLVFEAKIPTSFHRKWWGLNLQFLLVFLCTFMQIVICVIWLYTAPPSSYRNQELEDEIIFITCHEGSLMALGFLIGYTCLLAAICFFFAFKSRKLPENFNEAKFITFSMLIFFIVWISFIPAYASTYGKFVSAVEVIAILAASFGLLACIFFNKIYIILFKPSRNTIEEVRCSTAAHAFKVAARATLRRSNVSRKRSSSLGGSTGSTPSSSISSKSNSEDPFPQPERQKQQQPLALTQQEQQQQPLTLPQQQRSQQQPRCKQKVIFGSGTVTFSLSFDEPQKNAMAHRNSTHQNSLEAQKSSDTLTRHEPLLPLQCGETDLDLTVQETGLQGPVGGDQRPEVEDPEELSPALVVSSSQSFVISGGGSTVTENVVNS
- PROTOCOL: Ca^++ response of HEK 293 cells that express the previously characterized CaR
- MEASUREMENT_CONTEXT: transfected HEK 293 cells
METRIC: EC50 (mM)
Respond numerically; units are mM and should not be typed.

So the reported EC50 for [Ca+2] , on CaR (Homo sapiens, UniProt P41180), turned out to be 4.1
